Values of Kd reported for p47phox-PX (PX domain of p47phox, residues 1-128) (Homo sapiens, UniProt P14598) appear below.
Observation Type: Kd (µM)

compound="O=P(O)(O)OC1[C@H](O)[C@H](O)C(O)[C@H](O)[C@H]1O (stereo partly shown) [inositol-1-phosphate]" measurement=870
compound="O=P(O)(O)O[C@@H]1[C@@H](OP(=O)(O)O)[C@H](OP(=O)(O)O)[C@H](O)[C@H](OP(=O)(O)O)[C@H]1OP(=O)(O)O [IP5, inositol (1,3,4,5,6) pentakisphosphate]" measurement=58
compound="O=P(O)(O)O[C@H]1[C@H](O)[C@@H](OP(=O)(O)O)[C@H](OP(=O)(O)O)[C@@H](OP(=O)(O)O)[C@H]1O [IP4, inositol (1,3,4,5) tetrakisphosphate]" measurement=100
compound="O=P(O)(O)O[C@H]1[C@H](O)[C@@H](O)[C@H](OP(=O)(O)O)[C@@H](OP(=O)(O)O)[C@H]1O [IP3, inositol (1,3,4) trisphosphate]" measurement=200

###

# Target Desc: p47phox-PX (Homo sapiens, UniProt P14598)
# Construct: poly histidine tag (TEV cleavable) (cleaved yes); made in house; host or cells: E. coli BL21 (DE3)
# Sequence (P14598 1-128): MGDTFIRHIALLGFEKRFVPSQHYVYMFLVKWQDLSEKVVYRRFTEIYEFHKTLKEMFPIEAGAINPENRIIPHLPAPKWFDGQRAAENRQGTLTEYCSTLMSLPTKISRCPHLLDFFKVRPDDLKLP
# Assay Procedure: Fluorescence polarization direct binding of BODIPY-PI(3,4)P2 tracer
# Condition Description: 50 nM tracer, 10-0.02 μM protein, pH 7.0, 1 mM MgCl2
pKd: −log10 of the molar value.
Observation Type: pKd

substance="BODIPY-FL diC6–PI(3,4)P2 [BODIPY-PI(3,4)P2]" measurement=6.46
